Each recorded value in this set is attributed to PubChem BioAssay.

# Experimental target: Follistatin-related protein 3 (Homo sapiens) (UniProt O95633)
# Sequence (O95633 whole entry, looked up): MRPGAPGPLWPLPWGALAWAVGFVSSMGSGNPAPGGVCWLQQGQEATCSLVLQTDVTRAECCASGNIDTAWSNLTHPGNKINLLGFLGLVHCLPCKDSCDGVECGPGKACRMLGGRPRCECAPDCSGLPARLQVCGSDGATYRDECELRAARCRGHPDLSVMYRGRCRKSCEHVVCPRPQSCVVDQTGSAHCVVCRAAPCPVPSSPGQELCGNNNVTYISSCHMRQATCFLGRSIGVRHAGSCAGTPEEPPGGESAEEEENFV
# Procedure summary: compounds binding follistatin-related protein 3 – biochemical, small-molecule microarray, 635 nm fluorescence, primary screen (AID 1105);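 also: score merges emission near 667 nm and signal to noise per printed spot across three slides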
# Assay context: FSTL3 binding, higher = more signal
Reported metric: composite z-score

Example cases with answers are listed next.
{"Compound": "COCCOC(=O)N1C(=O)[C@@]2(c3cc(C#CCNC(N)=O)ccc31)[C@H](C(=O)N1CCCCCCC1)[C@H]1C(=O)O[C@H](c3ccccc3)[C@H](c3ccccc3)N1[C@@H]2c1ccc(OCCO)cc1", "composite z-score": 0.762}
{"Compound": "C[C@H]1NC(=O)C([C@@H](C)OCc2ccccc2)NC(=O)[C@@]23C(=O)N[C@@H](Cc4ccccc4)C2[C@H](C)[C@@]2(C)O[C@H]2C3/C=C/CC/C=C/CNC1=O (stereo not given in full)", "composite z-score": 0.575}
{"Compound": "CC(C)(C)OC(=O)CC[C@@]1(C(=O)N2CCCCC2)N=C(c2ccc(OCCCO)cc2)O[C@@H]1c1ccccc1CN=[N+]=[N-]", "composite z-score": 1.06}
{"Compound": "C=C(/C(=C/C[C@@H](OC(=O)c1ccncc1)c1cccc(OCCO)c1)c1cc(C(=O)OC)ccc1OC)C(C)C", "composite z-score": 0.59}
{"Compound": "COc1ccc(C(=O)Nc2ccc(CN3C(=O)[C@@]4(O[C@@H](CC(=O)N5Cc6ccccc6C[C@H]5CO)[C@H]([Si](C)(C)c5ccc(OC)cc5)[C@H]4C)c4ccccc43)cc2)cc1", "composite z-score": 1.19}

Request: Which composite z-score value belongs to `CCCCC=C[C@@H](NC(=O)CCc1ccccc1)c1ccccc1` ?
Response: 0.188

Request: Which composite z-score value belongs to `O=C1O[C@H](c2ccccc2)[C@H](c2ccccc2)N2[C@H]1[C@@H](C(=O)N1CCCCCCC1)[C@]1(C(=O)Nc3ccccc31)[C@H]2c1ccc(O)cc1` ?
Response: 1.8

Request: Which composite z-score value belongs to `Cc1ccc(S[C@]2(C(=O)NCc3ccccc3)CC(=O)N(C3Cc4ccccc4C3)[C@@H]2c2ccc(CO)cc2I)cc1` ?
Response: -0.645

Request: Which composite z-score value belongs to CCOc1cc(C(O)C2C=CC3C(=O)NC(=O)C3N2Nc2ccccn2)ccc1O (stereo not given) ?
Response: 0.189

Request: Which composite z-score value belongs to `COC(=O)[C@H]1N=C(c2ccc(OCCCO)cc2)O[C@H]1c1ccccc1CN=[N+]=[N-]` ?
Response: -0.605
